Tested on: MS2 coat protein
ASSAY_COMMENT: apparent KD of MS2 coat protein; designed switch direction (-1 OFF switch, 1 ON switch): -1; higher = weaker reporter binding
ASSAY_CONTEXT: input ligand: none
Field: apparent KD of MS2 coat protein. Provide a value for each of the sequences that follow.
A number alone suffices; assume nM.

Lookup: Give apparent KD of MS2 coat protein for AGAGUGCUGCGAGGAUAUACAUGAGGAUCACCCAUGUAAAAGUGUGAGGCAAAGCCUCACACUAUGUAGAAGGCGCAGUACUCA [Mat - Exclusion NG 2 - Mod of JL - D11] (Eterna round: R96, puzzle: Exclusion NG 2)
Found: 19.3

Lookup: Give apparent KD of MS2 coat protein for UUAAAUCAUGUAGGAUAUGCGUGGAGAAACUAUGCAGAAGGACAUGAGGAUCACCCAUGUGCUUCCGUCUGAGAACAGACGGUA [Mat - Exclusion NG 1 - Mod of JL - D14] (Eterna round: R96, puzzle: Exclusion NG 1)
Found: 57.9

----------
Test system: MS2 coat protein
ASSAY_COMMENT: apparent KD of MS2 coat protein; designed switch direction (-1 OFF switch, 1 ON switch): -1; higher = weaker reporter binding
ASSAY_CONTEXT: input ligand: microRNA oligo, concentration not stated
OBSERVABLE: apparent KD of MS2 coat protein (µM)
A number alone suffices; assume µM.

Lookup: Give apparent KD of MS2 coat protein for ACAUGAGGAUCACCCAUGUCCGGCUGGUCCGUCUCGGCUGUCGAGGAUAUAGCUCGGUGUCCGCGCUAGAAGGCGGGAGCUGGC [Aenatbe mod 67] (Eterna round: R96, puzzle: Exclusion NG 3)
Found: 0.0498

Lookup: Give apparent KD of MS2 coat protein for UUCCUCACUUCUUUGUCUCACAUGAGGAUCACCCAUGUAAUAUAGGAUAUGCUUAGUAUUUAUAUGCAGAAGGAUAUUAGUAUU [JR_ExcNG3_Sub084] (Eterna round: R96, puzzle: Exclusion NG 3)
Found: 0.0398

Lookup: Give apparent KD of MS2 coat protein for AUCAGCUCGUGAGGAUAUGCACAUGAGGAUCACCCAUGUAAGAUCAAGCUGCUUCGGCAGCAAGUGCAGAAGGUACGAGCUGAU [ENG2/9-C2] (Eterna round: R96, puzzle: Exclusion NG 2)
Found: 0.128

Lookup: Give apparent KD of MS2 coat protein for GCAGCAACUCUAAUCAAAACCACAUGAGGAUCACCCAUGUCUCAGGAUAUGGUCUGGAUUACAGGCCAGAAGGGAGAAAGCUGC [Eli exng3 - 050] (Eterna round: R96, puzzle: Exclusion NG 3)
Found: 0.0106

Lookup: Give apparent KD of MS2 coat protein for GUAGAGUCAGGAUAUACGAGAUCGAAAGAUCGGCGAUCCAUACAUGAGGAUCACCCAUGUAGAAGGGACUCUAC [ChP 11-04-2015 #5] (Eterna round: R96, puzzle: Exclusion 2)
Found: 0.0148

----------
System: MS2 coat protein
ASSAY_COMMENT: apparent KD of MS2 coat protein; higher = weaker reporter binding
ASSAY_CONTEXT: Eterna round: R107; input ligand: theophylline 2 mM
// false strictly below 20 nM in apparent KD of MS2 coat protein; true otherwise

Lookup: Please check the record UAGAUAGAGGGAAGGAGCGCGAUAACAUAACAUGAGGAUCACCCAUGUAAGAAAUUAAUAAUGCAGGUAGGUCGCCCAAGAUGAU [Same State Arginine B gf1] and state if its apparent KD of MS2 coat protein is at or above 20 nM.
Found: false

Lookup: Please check the record UACGUGGAUGCGGCCGCCACUGCUCUGAGCGAGUUGCUCUAUGGACAUGAGGAUCACCCAUGUCACAGGACCGGGCACGCUUUAA [theeternabot_sameState_MS2_Trp_B_50] and state if its apparent KD of MS2 coat protein is at or above 20 nM.
Found: false

Lookup: Please check the record CUUCAGGGUGCGGCCGCCACUUAUUAGGUGCUUGCGACGCCAGCACAUGAGGAUCACCCAUGUUCAAGGACCGGGCACCACCUUU [theeternabot_sameState_MS2_Trp_B_21] and state if its apparent KD of MS2 coat protein is at or above 20 nM.
Found: false

Lookup: Please check the record AACAUGAGGAUCACCCAUGUCUGAACUGAAGGAGCGCUAAAUAAGGCAGGUAGGUCGCGGAAUUUUGUAUAUAUAUAUAUAUGGG [9.F] and state if its apparent KD of MS2 coat protein is at or above 20 nM.
Found: true

Lookup: Please check the record GAUCGACAAAACGUCUAGGAAAACUAGACGCGAGGACCGGUACGGCCGCCACUCGUCCUCACAUGAGGAUCACCCAUGUACGAUC [#SwitchBubble 2 #CuTurnoff] and state if its apparent KD of MS2 coat protein is at or above 20 nM.
Found: true

Lookup: Please check the record GUACAUGAGGAUCACCCAUGUAUAGUUGAAGGAGCGACCAGAGGGUCAGGUAGGUCGCAGCACAUGGUGAAAACCCGUGUAUGCC [#1 Exclusion - Arginine A Attempt #21 (Inspired by Pi)] and state if its apparent KD of MS2 coat protein is at or above 20 nM.
Found: true

Lookup: Please check the record GGUUACUCUACGGCCGCCACUGUAAUGUAAAGAUUCCUGUACAUGACAUGAGGAUCACCCAUGUGCAGGACCGGGUAGUGUAACC [Tryptophan B 20] and state if its apparent KD of MS2 coat protein is at or above 20 nM.
Found: true

Lookup: Please check the record GAAGGAGAACUCAUGACUCCUUCCCUGGAAGGAGCGAGCGAAAGCUCAGGUAGGUCGCCAGAAACAUGAGGAUCACCCAUGUAAU [(A)''-(M)'-(A)'-(Arg1)-(Arg2)-(M1)-(M2)_Design4] and state if its apparent KD of MS2 coat protein is at or above 20 nM.
Found: true

Lookup: Please check the record ACAUGAGGAUCACCCAUGUAAGAUUCAGAAGGAGCGGGAAAUAACCCAGGUAGGUCGCUGAAGUUUGGUUUAUUGUGUUCGUGAA [#07 Exclusion - Arginine A] and state if its apparent KD of MS2 coat protein is at or above 20 nM.
Found: false

Lookup: Please check the record GGAUAGGACACGGCCGCCACUAUCUAGGAUACUAGCAACAUUUGGGUACUUGAGGAUCACCCAAGUAGGACCGGGUGUCCUAUCG and state if its apparent KD of MS2 coat protein is at or above 20 nM.
Found: true

Lookup: Please check the record CUCUGAGUGAGGAAUCACUCAGAGGCGGAUACCAGCGAGGUCCAUCGCCCUUGGCAGCCGAACAUGAGGAUCACCCAUGUCGGUA [#1 Same State - Theophylline A Attempt #23 (HarryS)] and state if its apparent KD of MS2 coat protein is at or above 20 nM.
Found: false
